target: Pfs48/45 D2-3 (Plasmodium falciparum 3D7, UniProt Q8I6T1); assay: ELISA; conditions: both partners purified
Sequence (Q8I6T1 184-428): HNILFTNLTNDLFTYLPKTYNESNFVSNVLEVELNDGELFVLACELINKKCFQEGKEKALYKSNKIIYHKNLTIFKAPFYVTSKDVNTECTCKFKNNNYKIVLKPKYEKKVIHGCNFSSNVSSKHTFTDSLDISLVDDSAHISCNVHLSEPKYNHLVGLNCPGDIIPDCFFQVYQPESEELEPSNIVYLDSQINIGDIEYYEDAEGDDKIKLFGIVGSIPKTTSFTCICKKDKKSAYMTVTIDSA

Binder: RUPA-83 (antibody, V domains shown, human IgG1; source: recombinant human IgG1, 293T (Protein A purified) or GenScript) VH: QVQLVQSGAEVKKPGASVKVSCKASGYIFTDYGITWVRQAPGQGLEWLGWISGYSYNTNYALKFQGRVTMTTDTSTSVTYMELRNLRSDDTAVYYCARDSRSSQLLQKFDLWGQGTLVTVSS VL: DIQLTQSPSSLSASVGDRVTITCRASQTTRNFLNWYQQKPGKAPELLIYAASTLQSGVPSRFSGSGSGTDFTLTIKNLQPEDFASYYCQQSFSSPTFGQGTKVEIK
binding result: binds
//
Binder: RUPA-25 (antibody, V domains shown, human IgG1; source: recombinant human IgG1, 293T (Protein A purified) or GenScript) VH: QVQLVQSGAEVKKPGASVKVSCTASGYNFLTHDISWVRQATGQGLEWMGWMNPNTGKKGYVQKFQGRVTMDRDMSKSTAYMELRSLTSEDTAVYYCVRGVGSYYGSGGWFDPWGQGTLVTVSS VL: QPVLTQPPSASETPGQKVTISCSGSSSNIGSDTVSWYVQLPGTAPKLLIYNDNQRPSGVPDRFSGSKSGTSASLAISGLQSEDEADYYCATWDASLKRRVFGGGTTLTVL
binding result: binds
//
Binder: RUPA-49 (antibody, V domains shown, human IgG1; source: recombinant human IgG1, 293T (Protein A purified) or GenScript) VH: QVQLVQSGAEVKKPGASVKVSCKASGYTFLYHDIIWMRQATGQGPEWMGWINPNTGNTGLAQKFQGRVSLTRNMSSGTAYMELRSLRSEDRAIYFCARGVGTYHGSGGWFDPWGQGTLVAVSS VL: QSVLTQPPSASETPGQRVTLSCSGSSSNIGSHTVNWYRQLPGTAPKLLIHSDDQRPSGVPDRFSGSKSGTSASLAISGLQSEDEADYYCATWDDSLKRGVFGGGTKLTVL
binding result: binds
